experiment: TB CFU imaging, starved microorganism, inhibitor dose response, confirmatory, dry powder (AID 743450)
Records with an inconclusive call do not appear. Calls of active or inactive are those of the source. The rule behind the calls is not given here.
Please reply with one of these outcomes: class 1 = active, class 0 = inactive

Solved cases (10 shown):
>  <COMPOUND>
CN(C(=O)c1ccccc1)c1nc2ccccc2n1C

>  <LABEL VALUE>
class 0

$$$$
>  <COMPOUND>
Cn1c(NC(=O)c2ccccc2)nc2c(C#N)cccc21

>  <LABEL VALUE>
class 1

$$$$
>  <COMPOUND>
COc1cccc2c1nc(NC(=O)c1ccccc1)n2C

>  <LABEL VALUE>
class 1

$$$$
>  <COMPOUND>
O=C(Nc1nc2ccccc2n1C1CCCCC1)c1ccccc1

>  <LABEL VALUE>
class 1

$$$$
>  <COMPOUND>
Cn1c(NC(=O)c2ccccc2)nc2cc(C(F)(F)F)ccc21

>  <LABEL VALUE>
class 1

$$$$
>  <COMPOUND>
Cn1c(NC(=O)c2ccccc2Cl)nc2ccccc21

>  <LABEL VALUE>
class 1

$$$$
>  <COMPOUND>
Cn1c(NC(=O)c2ccccc2NC(=O)c2ccccc2)nc2ccccc21

>  <LABEL VALUE>
class 1

$$$$
>  <COMPOUND>
Cn1c(NC(=O)c2cccnc2)nc2ccccc21

>  <LABEL VALUE>
class 1

$$$$
>  <COMPOUND>
CCN(CC)CCn1c(NC(=O)c2ccccc2)nc2ccccc21

>  <LABEL VALUE>
class 1

$$$$
>  <COMPOUND>
Cn1c(NC(=O)c2ccccc2)nc2c(F)cccc21

>  <LABEL VALUE>
class 1

$$$$

Ask | Assay outcome for CCCn1c(NC(=O)c2ccccc2)nc2ccccc21 : what was it?
Reply | class 1

Ask | # lookup: test call for Cn1c(NC(=O)Cc2ccccc2)nc2ccccc21
Reply | class 1
